assayed_target: V. destructor TRP receptor (VdTRP-R) (Varroa destructor)
Sequence (A0A141CIT9 1-437): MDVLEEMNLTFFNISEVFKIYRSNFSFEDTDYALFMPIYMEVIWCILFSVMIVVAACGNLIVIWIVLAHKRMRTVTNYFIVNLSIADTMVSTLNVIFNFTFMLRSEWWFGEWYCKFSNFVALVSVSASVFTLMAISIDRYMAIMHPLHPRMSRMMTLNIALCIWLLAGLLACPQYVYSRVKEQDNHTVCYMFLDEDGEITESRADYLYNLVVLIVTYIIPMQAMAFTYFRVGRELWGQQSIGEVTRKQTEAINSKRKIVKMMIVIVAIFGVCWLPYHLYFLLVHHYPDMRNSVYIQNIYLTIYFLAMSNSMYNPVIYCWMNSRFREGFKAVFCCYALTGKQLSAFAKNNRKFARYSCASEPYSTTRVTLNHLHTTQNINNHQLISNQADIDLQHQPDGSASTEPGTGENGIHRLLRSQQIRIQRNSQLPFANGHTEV
method: Aequorin calcium-mobilization reporter assay, VdTRP-R transiently expressed in CHO-K1 cells with Ga16
Type: cell-based
stated_conditions: ligand 1 μM; relative luminescence normalized by highest activity of endogenous ligand VdTRP3; 3 biological replications
No end group written: not given here.
// returns N unless Agonistic activity, VdTRP-R 1μM is strictly below 60 RLU, in which case Y

**Query** Determine whether this substance shows Agonistic activity, VdTRP-R 1μM lower than 60 RLU (ties excluded): ALMGFQGVR-NH2 [AmTRP1]
**Result** Y

**Query** // repeat for DLRQENDPFWGNR-NH2 [BmNTL3, NTL peptide of B. mori] and report
**Result** N

**Query** // repeat for SIGGPAPGFVGAR-NH2 [VdNTL1] and report
**Result** Y

**Query** // repeat for GSFFGMR-NH2 [VdTRP3, GSFFGMRa] and report
**Result** N

**Query** // repeat for LQLRDLYNADDPFVPNRa [DmNTL5, NTL peptide of D. melanogaster] and report
**Result** Y

**Query** // repeat for HRNLFQVDDPFFATRa [DmNTL4, NTL peptide of D. melanogaster] and report
**Result** N
